// reported viability per item
Experiment: growth inhibitors of H69AR lung tumor, primary screen, human, duplicate replicates (AID 580);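 also: 100% = mean luminescence of untreated wells and 0% = no signal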
Conditions: H69AR lung tumor cells viability, ATP luminescence, 72 h; at 10 µM; stronger effect = lower value
Calls of active or inactive are those of the source.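 The calls were made as follows: active = viability at or under a set limit in both replicates, limit being median viability minus 3 SD (cut at about 48% in these data, passing the limit was not always enough); inconclusive = at or under the limit in just one replicate; inactive = at or above the limit in both replicates.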
Endpoint: viability

| Compound | Experimental Value |
| --- | --- |
| COc1ccc(CNCC(=O)Nc2cc(C)nn2-c2nc(C)cc(C)n2)cc1OC | 11.9% (active) |
| Cc1ccc(NC(=O)CC2C(=O)NC3CCCCC3N2C(=O)c2ccc(F)cc2)cc1C (stereo unspecified) | 101% (inactive) |
| CCOC(=O)C1CSc2[nH]c(=O)sc2C1c1ccccc1 (stereo unspecified) | 93.2% (inactive) |
| Cc1ccccc1Nc1cc2ccccc2c(=O)[nH]1 | 102% (inactive) |
| CN(C)S(=O)(=O)c1cccc(C(=O)Nc2cccnc2)c1 | 89.5% (inactive) |
| CCOC(=O)NC(c1ccccc1)C1CCCCC1=O (stereo unspecified) | 94.2% (inactive) |
| CN(Cc1ccc(-n2cccn2)cc1)C(=O)c1cnn2c1NC(c1ccco1)CC2C(F)(F)F (stereo unspecified) | 78.4% (inactive) |
| Cc1ccccc1-n1c(SCc2c(C)noc2C)nnc1-c1ccncc1 | 87.4% (inactive) |
| C=CCSc1nnc(NC(=O)c2ccc(S(=O)(=O)NCC3CCCO3)cc2)s1 (stereo unspecified) | 90.4% (inactive) |
| Cc1nn(-c2ccc(F)cc2)c2sc(C(=O)N3CCCCCC3)cc12 | 78.8% (inactive) |
| CC1(C)CC(=O)C(C=NC(CCC(N)=O)C(=O)O)=C(O)C1 (stereo unspecified) | 91.9% (inactive) |

* * *

Assay: growth suppression of yeast trafficking mutant, preliminary HTS, modulators of trafficking downstream of Golgi apparatus project, 1536-format plate, OD 615 nm (AID 637)
Details: yeast transport mutant growth, absorbance 615 nm, 18 h; stronger effect = higher value

| Compound | inhibition, % |
| --- | --- |
| O=C(O)CSC1CC(=O)N(c2ccc(Cl)c(Cl)c2)C1=O (stereo not given) | 0.36 |
| CC(=O)Nc1ccc(NC(=O)Cn2cc3c(n2)CCC(C)C3)cc1 (stereo not given) | -8.73 |
| Cc1nn(Cc2ccccc2)c(C)c1NC(=O)c1cc(-c2ccco2)on1 | -0.55 |
| CCOC(=O)CS(=O)(=O)c1nc(-c2ccccc2)cc(C(F)(F)F)n1 | -0.63 |
| Cn1nc(CC(=O)Nc2ccc(N3CCN(C(=O)OC(C)(C)C)CC3)cc2)c2ccccc2c1=O | -4.26 |
| CCCCCn1c2nc3ccccc3nc2c2c(=O)n(CC(C)C)cnc21 | 3.55 |
| CCCn1c(SCC(=O)Nc2nnc(-c3ccccc3)s2)nnc1-c1ccccn1 | 25 |
| O=C(NC1CCCC1)C(NS(=O)(=O)c1cccc2nsnc12)c1ccccc1 (stereo not given) | 8.18 |
| O=C(Cn1[nH]c(=O)c2ccccc2c1=O)OCC(=O)N1CCCc2ccccc21 | -2.55 |
| O=C(CSc1ccccc1C(=O)NCCCN1CCCC1=O)NCc1ccco1 | 6 |

* * *

Assay: reversal of MRP1-mediated doxorubicin resistance, pilot screen, H69AR cells, doxorubicin co-treatment (AID 601)
Conditions: H69AR cells + 2 uM doxorubicin, CellTiter-Glo, 72 h; measured here: viability with 2 uM doxorubicin; at 10 µM; stronger effect = lower value
Consider the cut-off 90%. If the recorded viability is strictly smaller, the label is T; if not, the label is F.

| Molecule | Qualitative Label |
| --- | --- |
| CCOC(=O)C1=C(C)NC(C)=C(C(=O)OC)C1c1cccc(Cl)c1Cl (configuration not stated) | T |
| COC(=O)c1ccc(COC(=O)c2c(C)nn(Cc3ccccc3Cl)c2Cl)o1 | T |
| COc1ccc(Cl)cc1Nc1nc(NCCO)nc(N2CCCC2)n1 | F |
| CC(=O)Oc1cccc2c1C(=O)c1c(OC(C)=O)cc(C(=O)O)cc1C2=O | T |
| O=c1[nH]c2ccc(S(=O)(=O)N3CCN(C4CCCCC4)CC3)cc2[nH]c1=O | F |
| Nc1nc(-c2ccccc2)cc(C(F)(F)F)n1 | F |
| COc1ccc(OC)c(Nc2nc(-c3cccs3)cs2)c1 | T |
| CSc1c(CC(=O)NCCO)n(C)c2ccccc12 | F |
| Cc1cc(C(=O)Cn2cncn2)c(C)n1CCc1ccc(F)cc1 | F |
| CCOC(=O)c1cc(CC)sc1NC(=O)COC | T |
| O=C(CN1C(=O)c2ccccc2C1=O)Nc1ccc(S(=O)(=O)NCC2CCCO2)cc1 (configuration not stated) | F |
| Cc1ccc(C2=Nc3ccccc3NC(C)(c3ccc(C)o3)C2)o1 (configuration not stated) | T |
| COc1ccc2c(C)nc(Nc3nc(C)cc(C)n3)nc2c1 | F |
| Cc1ccc(S(=O)(=O)N2CCN(C(=O)N3CCOCC3)C2c2ccc(N(C)C)cc2)cc1 (configuration not stated) | F |
| Cc1ccc(O)c(-c2cc3ccccc3[nH]2)c1 | T |
| CN(C)c1ccc(C=Nc2ccc(N(C)C)cc2)cc1 | T |
| COc1ccc(S(=O)(=O)Nc2cccc(C)n2)c2ccccc12 | T |
| O=C(COC(=O)c1cc(S(=O)(=O)N2CCOCC2)cs1)c1ccccc1 | T |
| CCn1c(Cc2ccccc2)nnc1SCC(=O)Nc1nc2ccccc2s1 | F |
| O=C(O)CCc1cc(I)c(Oc2ccc(O)c(I)c2)c(I)c1 | F |
| CCCOC(=O)/C(C(N)=NCc1ccccc1)=C(\O)OCCC | F |
| Nc1cc(C(=O)O)ccc1Nc1ccccc1 | F |
| CCCc1cc(=O)[nH]c(Nc2ccc(OC)c(Cl)c2)n1 | T |
| CN(C)S(=O)(=O)c1cccc(C(=O)Nc2cccnc2)c1 | T |
| Cc1ccc(S(=O)(=O)N2CCCC2)cc1S(=O)(=O)N1CCCC1 | F |
| O=C(NCCCN1CCOCC1)c1cc(-c2ccc(Cl)cc2)on1 | T |
| CCCCn1c(SCC(=O)NCc2ccccc2)nc2ccc(N3CCOCC3)cc2c1=O | T |
| CCCN1Cc2cccc(C(=O)NC3CCCC3)c2C1=O | T |
| CCNc1oc(COc2ccccc2F)nc1C#N | T |
| CCOC(=O)c1c(C(F)(F)C(F)(F)C(F)(F)C(F)(F)F)n[nH]c1C | T |
| CCc1nnc(SCC(=O)NC2CCCCC2)nc1CC | T |
| COC(=O)c1cc(OC)c(OC)cc1NC(=O)CC1CCCCC1 | F |
| CCOc1ccc2nc(NC(=O)C(NS(=O)(=O)c3cccs3)C(C)C)sc2c1 (configuration not stated) | T |
| COc1ccc(-c2cc3c(=O)n(CC(=O)NC4CCN(Cc5ccccc5)CC4)ncn3n2)cc1 | T |
| COc1cccc(-c2csc(N3CCN(CC(=O)Nc4ccc5c(c4)OCO5)CC3)n2)c1 | T |
| CC(=O)Nc1ccc(S(=O)(=O)n2cnc(C)c2)cc1 | F |
| CC(C)NCC(O)COc1cccc2[nH]ccc12 (configuration not stated) | F |
| CN1C(=O)c2c(sc3c2CCCC3)NC1c1ccccc1O (configuration not stated) | F |
| NC(=O)c1cc(-c2ccccc2)nc(Oc2ccccc2)n1 | F |
